Entries and their measured logP follow.
- method: Lipophilicity, logP of the compound
- Type: physicochemical
- details: octanol/water
// print number alone

Worked cases, answers included:
>>> testvalue("O=c1c2ccccc2n(CCCCCCn2cc(CO[C@@H]3O[C@H](CO)[C@@H](O)[C@H]3O)nn2)c2ccccc12")
2.68
>>> testvalue("COc1ccc2c(c1)c(=O)c1ccccc1n2CCCCCCn1cc(CO[C@@H]2O[C@H](CO)[C@@H](O)[C@H](O)[C@H]2O)nn1")
2.14

Let's switch to this compound now.
QUERY: Indicate its recorded logP; the compound in question is `O=c1c2ccccc2n(CCCCCCn2cc(CO[C@@H]3O[C@H](CO)[C@@H](O)[C@H](O)[C@H]3O)nn2)c2ccccc12`
RESULT: 2.14

---

- experimentalTarget: Acetylcholinesterase (Homo sapiens, UniProt P22303)
- Sequence (P22303 whole entry): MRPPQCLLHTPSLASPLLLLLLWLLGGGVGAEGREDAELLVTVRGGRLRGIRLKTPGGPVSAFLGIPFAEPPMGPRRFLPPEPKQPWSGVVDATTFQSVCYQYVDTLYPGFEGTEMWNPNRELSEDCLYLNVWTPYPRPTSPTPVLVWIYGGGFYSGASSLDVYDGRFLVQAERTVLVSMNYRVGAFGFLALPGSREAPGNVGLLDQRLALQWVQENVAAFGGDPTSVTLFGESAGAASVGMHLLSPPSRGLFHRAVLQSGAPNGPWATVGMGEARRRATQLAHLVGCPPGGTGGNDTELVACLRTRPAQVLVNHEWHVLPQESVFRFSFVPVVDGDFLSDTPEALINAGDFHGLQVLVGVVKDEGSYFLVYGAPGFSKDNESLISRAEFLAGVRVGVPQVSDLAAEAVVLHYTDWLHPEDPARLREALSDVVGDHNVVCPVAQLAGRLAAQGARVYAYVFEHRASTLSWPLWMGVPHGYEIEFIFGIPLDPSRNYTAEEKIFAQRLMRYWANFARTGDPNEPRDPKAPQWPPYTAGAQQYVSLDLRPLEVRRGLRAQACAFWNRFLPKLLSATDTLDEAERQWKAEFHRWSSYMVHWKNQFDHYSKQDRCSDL
Entries and their measured pKi follow.
Scale: pKi equals -log10([C]), with [C] in mol/L.

>>> testvalue("CC(=O)Nc1nc(NCc2ccccc2)c2ncn(C3O[C@H](CC(=O)NCc4ccccc4)[C@H](OC(C)=O)[C@H]3OC(C)=O)c2n1 (some centres not stated)")
4.30
>>> testvalue("CC(=O)Nc1nc(Cl)c2c(ncn2C2O[C@H](C(=O)O)[C@@H](OC(C)=O)[C@@H](OC(C)=O)[C@H]2OC(C)=O)n1 (some centres not stated)")
4.42
>>> testvalue("CC(=O)Nc1nc(Cl)c2c(ncn2C2O[C@H](C(=O)NCc3ccccc3)[C@@H](OC(C)=O)[C@@H](OC(C)=O)[C@H]2OC(C)=O)n1 (some centres not stated)")
4.73
>>> testvalue("CC(=O)Nc1nc(Cl)c2ncn(C3O[C@H](C(=O)O)[C@@H](OC(C)=O)[C@@H](OC(C)=O)[C@H]3OC(C)=O)c2n1 (some centres not stated)")
4.57
>>> testvalue("CC(=O)Nc1nc(Cl)c2ncn(C3O[C@H](C(=O)NCc4ccccc4)[C@@H](OC(C)=O)[C@@H](OC(C)=O)[C@H]3OC(C)=O)c2n1 (some centres not stated)")
4.51
>>> testvalue("CC(=O)Nc1nc(Cl)c2ncn(C3O[C@H]4[C@H](OC(=O)[C@@H]4O)[C@H]3OC(C)=O)c2n1 (some centres not stated)")
4.63

QUERY: Indicate its recorded pKi; the compound in question is CC(=O)Nc1nc(Cl)c2ncn(C3O[C@H](CC(=O)NCc4ccccc4)[C@H](OC(C)=O)[C@H]3OC(C)=O)c2n1 (some centres not stated)
RESULT: 4.83
